# systemUnderTest: T1, cyno FcRn/b2M (cyno, UniProt Q8SPV9 24-297; Q8SPW0 21-119, biotinylated)
# T1 construct: bought recombinant biotinylated protein (Immunitrack ITF05 or ACRO FCM-C82W5); also called cFcRn; cFcRn/cb2M
# T1 sequence (Q8SPV9 24-297 limits assumed, chain 1 of 2): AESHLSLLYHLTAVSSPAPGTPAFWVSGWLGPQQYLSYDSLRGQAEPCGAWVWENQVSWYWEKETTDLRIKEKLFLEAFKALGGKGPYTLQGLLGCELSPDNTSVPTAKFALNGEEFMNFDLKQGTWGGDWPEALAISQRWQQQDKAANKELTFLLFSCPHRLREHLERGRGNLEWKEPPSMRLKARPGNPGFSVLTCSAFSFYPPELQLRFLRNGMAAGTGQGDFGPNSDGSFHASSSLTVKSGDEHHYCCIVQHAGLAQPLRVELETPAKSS
# T1 sequence (Q8SPW0 21-119 limits assumed, chain 2 of 2): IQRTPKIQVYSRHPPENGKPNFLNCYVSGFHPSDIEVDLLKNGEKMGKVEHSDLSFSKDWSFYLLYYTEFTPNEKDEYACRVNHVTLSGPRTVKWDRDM
# procedureSummary: SPR off-rate; pH 7.4 vs pH 6.0;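 also: surface plasmon resonance with diluted periplasmic extracts flowed over ligand surfaces, 120 s association and 600–3600 s dissociation at 25 °C, running buffer containing 150 mM NaCl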
Overview of recorded kd ratio pH 7.4/6.0 for various binders
Kindly provide the number alone.

binder	recordedMeasurement
T0263018B11 Y32F (VHH, name in Kabat numbering, FLAG3-His6 tagged) VHH: EVQLVESGGGVVQPGGSLRLSCAASGFTFSSFAMYWVRQAPGKGLEWVSAISSGGGSTDYADSVKGRFTISRDNSKNTLYLQMNSLRPEDTALYYCAADTLYTSLTWYSYWGQGTLVTVSS	46
T0263018B11 S100M (VHH, name in Kabat numbering, FLAG3-His6 tagged) VHH: EVQLVESGGGVVQPGGSLRLSCAASGFTFSSYAMYWVRQAPGKGLEWVSAISSGGGSTDYADSVKGRFTISRDNSKNTLYLQMNSLRPEDTALYYCAADTLYTMLTWYSYWGQGTLVTVSS	68
T0263018B11 T57L (VHH, name in Kabat numbering, FLAG3-His6 tagged) VHH: EVQLVESGGGVVQPGGSLRLSCAASGFTFSSYAMYWVRQAPGKGLEWVSAISSGGGSLDYADSVKGRFTISRDNSKNTLYLQMNSLRPEDTALYYCAADTLYTSLTWYSYWGQGTLVTVSS	39

// switching to the query binder
Given T0263018B11 T57K (VHH, name in Kabat numbering, FLAG3-His6 tagged) VHH: EVQLVESGGGVVQPGGSLRLSCAASGFTFSSYAMYWVRQAPGKGLEWVSAISSGGGSKDYADSVKGRFTISRDNSKNTLYLQMNSLRPEDTALYYCAADTLYTSLTWYSYWGQGTLVTVSS , state its recorded kd ratio pH 7.4/6.0. 40

Data provenance is patent US20240132624A1.
